Tested on: Saccharomyces cerevisiae
assay-overview: protein stability index of tFT-peptide fusion (C-terminal peptide) (PSI (0-1 scale)); higher = more stable (slower turnover)
run-parameters: genetic background: wild type; temperature: 30 C
# reported protein stability index; entries follow
Form rule: numeric answer, no unit written next to it.

Reference set (4 entries):
{"columns": ["residues", "measured-target", "protein stability index"],
 "data": [
  ["GLLARESLSFRH", "Saccharomyces cerevisiae", 0.675],
  ["RLPLSSPLRFSL", "Saccharomyces cerevisiae", 0.712],
  ["FIKSRRLCCVNL", "Saccharomyces cerevisiae", 0.663],
  ["PPGPRPTPPPPI", "Saccharomyces cerevisiae", 0.641]
]}

Return protein stability index measured with Saccharomyces cerevisiae given this sequence: `TVRVWPRNLWFS`
0.176

Return protein stability index measured with Saccharomyces cerevisiae given this sequence: `ICQFFFFALLSF`
0.178

###

Tested on: Saccharomyces cerevisiae
assay-overview: protein stability index of tFT-peptide fusion in wild type (PSI (0-1 scale)); higher = more stable (slower turnover)
run-parameters: genetic background: wild type
quantity-name: protein stability index

Reference set (3 entries):
{"columns": ["residues", "measured-target", "reading"],
 "data": [
  ["RVTGLDAIYFRI", "Saccharomyces cerevisiae", 0.534],
  ["LKILRQKMSHQN", "Saccharomyces cerevisiae", 0.37],
  ["MRWRVGLWRGAS", "Saccharomyces cerevisiae", 0.143]
]}

What value of protein stability index has been recorded for this entry: `LKILRQKMNHWN`
0.216

What value of protein stability index has been recorded for this entry: `RLIQPLPMQFLN`
0.0399

###

Test system: Saccharomyces cerevisiae
assay-overview: protein stability index of tFT-peptide fusion (C-terminal peptide) (PSI (0-1 scale)); higher = more stable (slower turnover)
run-parameters: genetic background: wild type; temperature: 30 C
quantity-name: protein stability index

{"columns": ["residues", "protein stability index"],
 "data": [
  ["GPVTPADASPHC", 0.686],
  ["PLPPPPPALPLP", 0.683]
]}

What value of protein stability index has been recorded for this entry: `ARGSTGLKLRWG`
0.706

What value of protein stability index has been recorded for this entry: `HRNAFLLPPFPL`
0.695

###

System: Saccharomyces cerevisiae
assay-overview: protein stability index of tFT-peptide fusion (C-terminal peptide) (PSI (0-1 scale)); higher = more stable (slower turnover)
run-parameters: genetic background: wild type; temperature: 30 C
Class assignment keyed on protein stability index, ranges band A (below 0.6), band B (0.6 to below 0.7), band C (0.7 or more)

{"columns": ["residues", "label"],
 "data": [
  ["SGLPPYTPPLSF", "band C"],
  ["FFLRSPLFPCSH", "band C"],
  ["VLPHFSLSTPSP", "band C"]
]}

Classify this sequence: `LFIGFFGIECFI`
band A

Classify this sequence: `WYYTWKQLVMIV`
band A

Classify this sequence: `KRMVEKNKKKIN`
band A

Classify this sequence: `YPSDLRPPSSPI`
band C

Classify this sequence: `MNNYWKNSTKIK`
band C

###

# reported protein stability index; entries follow
System: Saccharomyces cerevisiae
assay-overview: protein stability index of tFT-peptide fusion in deletion strain of DAS1 (PSI (0-1 scale)); higher = more stable (slower turnover)
Form rule: numeric answer, no unit written next to it.

What value of protein stability index has been recorded for this entry: `PQLAASFWRVVG`
0.7

What value of protein stability index has been recorded for this entry: `ARWRVGLWRGNS`
0.68

What value of protein stability index has been recorded for this entry: `CTSCGYKCRTNN`
0.661

What value of protein stability index has been recorded for this entry: `RLIQPLPVQFLL`
0.586

What value of protein stability index has been recorded for this entry: `FTMRWTFRYWVN`
0.428

What value of protein stability index has been recorded for this entry: `LVVWLSCVACIN`
0.0381

What value of protein stability index has been recorded for this entry: `PSLAASFWVVVG`
0.554

What value of protein stability index has been recorded for this entry: `LRGAVGGWRLVG`
0.681

What value of protein stability index has been recorded for this entry: `CTSEGYKFRTNN`
0.68

What value of protein stability index has been recorded for this entry: `LKGLRQKMNHQN`
0.669

Provenance of the data: the supplement of paper PMC10724198
